Where do the numbers come from? From PubChem BioAssay.

compounds and their reported RAM network inhibition
Test: RAM signaling pathway blockade in yeast – S. cerevisiae, Pdr1DBD-CYC8 efflux-inhibited sensitized strain, primary screen (AID 1298);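 note: 0% = DMSO untreated cells without growth and 100% = 10 µM 1-NA-PP1 full growth; higher means more yeast growth rescued from 5-FOA killing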
Conditions: S. cerevisiae cbk1-as DSE1-URA3 strain, 5-FOA growth OD615, 2 d; at 50 µM; hits give high values
Express your answer in %, writing the number without its unit.

The following compounds have reported results that may help.
| compound | RAM network inhibition (%) |
| --- | --- |
| O=C(CSc1ccc2nnc(-c3cccnc3)n2n1)N1CCc2ccccc21 | 4.57 |
| C(=N\c1c(-c2ccccc2)nc2n1CCS2)/c1ccccc1 | 6.86 |
| CSc1ccc(C2NC(=O)c3c(sc4c3CCN(C)C4)N2)cc1 (stereo unspecified) | 4.99 |

For CCN1CCN(C(c2cccs2)C(C)NC(=O)c2ccccc2)CC1 (stereo unspecified) the compound record lists RAM network inhibition as 5.79

For COc1ccc(N2C(=O)CC(c3ccc(OC(C)C)cc3)C2=O)cc1 (stereo unspecified) the compound record lists RAM network inhibition as 3.45

For `Cc1onc(-c2ccccc2Cl)c1C(=O)N1CCc2ccccc21` the compound record lists RAM network inhibition as 7.99

For `O=C(Nn1c(=S)[nH]c2ccccc2c1=O)c1ccncc1` the compound record lists RAM network inhibition as 4.74

For CC1CCCC(N2CCN(C(=O)c3ccc(F)cc3)CC2)C1 (stereo unspecified) the compound record lists RAM network inhibition as -0.84

For Cc1noc(/C=C/N(C)C)c1S(=O)(=O)N1CCCC(C(=O)NCCC2=CCCCC2)C1 (stereo unspecified) the compound record lists RAM network inhibition as 6.39

For `Cc1nnc(Sc2nc3c(c(=O)[nH]c(=O)n3C)n2Cc2ccccc2Cl)s1` the compound record lists RAM network inhibition as 2.84

For COC(=O)C1C(=O)c2c([nH]c(C(=O)OC3CCCCCC3)c2C)CC1C (stereo unspecified) the compound record lists RAM network inhibition as 3.01

###

Experiment: growth suppression of yeast trafficking mutant, preliminary HTS, modulators of trafficking downstream of Golgi apparatus project, 1536-format plate, OD 615 nm (AID 637)
Details: yeast transport mutant growth, absorbance 615 nm, 18 h; hits give high values
readout-type: inhibition (%)
Express your answer in %, writing the number without its unit.

The following compounds have reported results that may help.
| compound | reading-unit | inhibition |
| --- | --- | --- |
| COc1ccc(CC(=O)NCc2nnc(SCC(=O)Nc3nccs3)n2-c2ccccc2)cc1 | % | -3.67 |
| Cc1ccc(C(c2sc3ncnn3c2O)N2CC(C)CC(C)C2)cc1 (stereo not drawn) | % | 1.67 |
| CCCC(=O)Nc1cc(C)c2c(=O)oc3ccccc3c2n1 | % | 0.33 |
| O=C(Cn1nc(Cc2cccnc2)c2ccccc2c1=O)Nc1ccc2c(c1)OCO2 | % | -0.67 |
| Cc1cc(C)n(-c2ccc(N3CCOCC3)nn2)n1 | % | 0 |
| Cc1nc2ccc(C(=O)c3ccccc3)cc2[nH]1 | % | 0.33 |

Consider now this further compound.
For `FC(F)(F)c1cc(-c2ccco2)nc(NCc2ccco2)n1` the compound record lists inhibition as 24.2

###

Test: S. cerevisiae growth inhibition in restrictive medium, OD615, pilot screen, restrictive growth control, yeast lifespan reduction project (AID 706);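 note: modified DeaD lifespan yeast strain shifted to restrictive glucose medium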
Settings: OD615, 48 h, at 10 µM, hits give high values
The source made the active and inactive calls.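 Rule for the calls: active = growth inhibition above a set limit, 3 SD over mean compound inhibition, in both replicates (cut at about 43% in these data); inconclusive = above the limit in only one replicate; inactive = at or below the limit in both replicates.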
compounds and their reported growth inhibition

For `O=C(CN1CCN(Cc2ccc(F)cc2Cl)C1=O)NCCCN1CCOCC1` the compound record lists growth inhibition as 8.75% (inactive)

For `Cc1cccc(NC(=O)CS(=O)(=O)c2cn(C)c3ccccc23)c1` the compound record lists growth inhibition as -12% (inactive)

For `CCCN1CCN(CCCNC(=O)Cn2ncc3c4ccccc4n(C)c3c2=O)CC1` the compound record lists growth inhibition as -10.6% (inactive)

For `COc1ccc(CCNc2oc(COc3ccccc3Cl)nc2C#N)cc1OC` the compound record lists growth inhibition as -0.295% (inactive)

For `CCOC(=O)C(C)(C)Sc1nc2c(cnn2-c2ccc(Cl)cc2)c(=O)[nH]1` the compound record lists growth inhibition as -0.62% (inactive)

For `Cc1ccc2oc(-c3ccc(NC(=O)CC(C)C)cc3)nc2c1` the compound record lists growth inhibition as -6.46% (inactive)

For `COc1ccccc1C(=O)NCCc1nc2ccccc2n1C` the compound record lists growth inhibition as 0.505% (inactive)

For O=C(NCCN1C(=O)C2C3C=CC(C3)C2C1=O)N1CCCCC1 (stereo unspecified) the compound record lists growth inhibition as 0.245% (inactive)

For `CCCCC(=O)NCCc1cc2c(C)ccc(C)c2[nH]c1=O` the compound record lists growth inhibition as -13.3% (inactive)

For `COc1ccc(C(=O)c2ccc(OC)c(N)c2)cc1N` the compound record lists growth inhibition as -17.8% (inactive)

For `CC(C)(NC(=O)N1CCCC1)c1cccc(C(C)(C)NC(=O)N2CCCC2)c1` the compound record lists growth inhibition as 3.39% (inactive)

###

molecules and their reported viability increase
Experiment: doxorubicin toxicity protection in MRP-1 cells – H69AR cells, CellTiter-Glo, duplicate, MRP-1 activator project, pilot screen (AID 807);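 note: compound pretreatment 18-22 h then 72 h combined with doxorubicin; 0% = doxorubicin alone and 100% = vehicle without doxorubicin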
Conditions: H69AR viability with doxorubicin, CellTiter-Glo luminescence; at 10 µM; hits give high values
Activity calls are given as the source filed them.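 The calls were made as follows: active = viability increase at or above a cutoff of the median across tested compounds plus 3 SD (cut at about 8.5% in these data, passing the limit was not always enough); inconclusive = some gains above the cutoff, reason not given; inactive = the rest.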

The following molecules have reported results that may help.
| molecule | viability increase |
| --- | --- |
| CCCSc1nc2c(cnn2-c2ccccc2)c(=O)[nH]1 | -0.89% (inactive) |
| O=C(c1ccccc1)n1nc(-c2ccccc2)nc1NCc1ccco1 | 0.43% (inactive) |
| Cc1c(C)c2ccc(OC3CCCCC3=O)cc2oc1=O (stereo not given) | 0.57% (inactive) |

For COc1ccc(NC(=O)C2CCCN2S(=O)(=O)c2cccc3cccnc23)c(OC)c1 (stereo not given) the molecule record lists viability increase as -2.76% (inactive)

For COc1cccc(C2CC(c3ccc(C)cc3)n3nc(N)nc3N2)c1 (stereo not given) the molecule record lists viability increase as -1.45% (inactive)

###

Assay: RAM pathway blockade in budding yeast – dse1pr::URA3 reporter, 5-FOA selection, pilot screen (AID 869);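 note: 0% = DMSO wells with no growth and 100% = 10 µM 1-NA-PP1 with full growth; RAM network block rescues cells from 5-FOA so hits raise OD615 growth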
Conditions: S. cerevisiae dse1pr::URA3 5-FOA growth, OD615, 2 d; at 10 µM; hits give high values; strain carries analog-sensitive mutant Cbk1 kinase
Short version: inhibition at least 2% is Yes, less is No.

Please review the entries below; each comes with its answer.
| compound | classification |
| --- | --- |
| COc1cccc(-c2nnc(NC(C)=O)o2)c1 | No |
| COc1cccc(C2CC(c3ccc(F)cc3)Nc3nc(N)nn32)c1 (stereo unspecified) | No |
| CC1CCCN(C(=O)CN2C(=O)c3ccccc3C2=O)C1 (stereo unspecified) | No |
| O=C(Nc1nncs1)c1ccccc1NS(=O)(=O)c1cccs1 | Yes |
| COC(=O)C1=C(C)NC(C)=C(C(=O)OC)C1C1CC=CCC1 (stereo unspecified) | Yes |

Then this compound:
Ask: Hi, just wondering whether `CN(C)c1ccc(S(=O)(=O)c2ccc(Cl)cc2)cc1` shows inhibition of 2% or higher.
Reply: No

###

molecules and their reported Her2 level
Target: Receptor tyrosine-protein kinase erbB-2 (Homo sapiens) (UniProt P04626)
Sequence (P04626 whole entry, looked up): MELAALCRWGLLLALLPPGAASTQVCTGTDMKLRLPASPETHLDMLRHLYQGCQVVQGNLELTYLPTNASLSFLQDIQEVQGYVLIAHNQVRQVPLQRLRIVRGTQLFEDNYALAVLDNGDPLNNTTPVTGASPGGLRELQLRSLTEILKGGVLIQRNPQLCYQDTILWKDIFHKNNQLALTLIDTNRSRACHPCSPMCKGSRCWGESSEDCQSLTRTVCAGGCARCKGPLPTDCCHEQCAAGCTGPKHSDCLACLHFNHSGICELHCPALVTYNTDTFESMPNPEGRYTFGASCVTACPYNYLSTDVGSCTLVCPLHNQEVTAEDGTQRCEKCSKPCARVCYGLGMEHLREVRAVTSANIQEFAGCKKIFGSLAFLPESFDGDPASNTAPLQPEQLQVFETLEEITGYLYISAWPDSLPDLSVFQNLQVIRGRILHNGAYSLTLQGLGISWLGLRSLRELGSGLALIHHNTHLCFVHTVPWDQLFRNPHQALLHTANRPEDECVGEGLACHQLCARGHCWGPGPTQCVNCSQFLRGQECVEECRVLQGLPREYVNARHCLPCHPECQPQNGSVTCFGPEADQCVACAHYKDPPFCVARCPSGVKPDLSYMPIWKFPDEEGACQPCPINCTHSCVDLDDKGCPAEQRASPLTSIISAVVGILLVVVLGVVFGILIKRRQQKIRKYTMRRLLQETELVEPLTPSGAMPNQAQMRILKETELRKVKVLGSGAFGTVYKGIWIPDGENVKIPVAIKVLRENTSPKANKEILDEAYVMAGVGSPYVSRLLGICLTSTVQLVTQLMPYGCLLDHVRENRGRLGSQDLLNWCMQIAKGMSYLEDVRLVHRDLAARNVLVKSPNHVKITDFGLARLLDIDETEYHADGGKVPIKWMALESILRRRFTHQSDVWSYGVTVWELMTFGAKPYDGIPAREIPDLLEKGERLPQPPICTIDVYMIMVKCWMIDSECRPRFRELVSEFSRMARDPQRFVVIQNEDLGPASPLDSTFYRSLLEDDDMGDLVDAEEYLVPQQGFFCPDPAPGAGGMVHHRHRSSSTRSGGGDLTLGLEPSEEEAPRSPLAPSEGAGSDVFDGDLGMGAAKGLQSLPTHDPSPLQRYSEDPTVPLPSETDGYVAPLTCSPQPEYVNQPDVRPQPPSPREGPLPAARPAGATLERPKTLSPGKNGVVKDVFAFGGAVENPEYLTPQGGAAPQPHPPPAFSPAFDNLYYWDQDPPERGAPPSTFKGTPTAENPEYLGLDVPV
Assay: Her2 expression decrease, cell viability multiplex – SKBR3 breast tumor cells, AlphaScreen, ATP viability, primary screen (AID 461);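 note: lower value means less Her2 protein in the cells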
Details: 18-24 h, at 10 µM, hits give low values
Express your answer in %, writing the number without its unit.

The following molecules have reported results that may help.
| molecule | Her2 level [%] |
| --- | --- |
| CC(C(=O)N1CC2(C)CC1CC(C)(C)C2)N1C(=O)c2ccccc2C1=O (stereo unspecified) | 101 |
| Oc1ccccc1-c1nnc(COc2ccc(Cl)cc2Cl)o1 | 97.5 |
| CC(=O)c1ccc(NC(=O)C2CCN(S(=O)(=O)c3cccc4cccnc34)CC2)cc1 | 117 |
| O=C(COc1ccc(=O)n(-c2ccccc2)n1)Nc1ccccc1 | 95.5 |
| CN1CCN(Cc2nc3c(c(=O)[nH]c(=O)n3C)n2CCc2ccccc2)CC1 | 96 |

For CC1CCc2nn(CC(=O)NCCN3CCCCC3C)cc2C1 (stereo unspecified) the molecule record lists Her2 level as 104

For `CCOC(=O)N1CCN(C(=O)CSc2nnc(COc3ccccc3)o2)CC1` the molecule record lists Her2 level as 89.5

For `Cc1nc2c(-c3ccccc3)c(C)nn2c(C)c1CCC(=O)NCc1ccco1` the molecule record lists Her2 level as 100

###

Assay: RAM signaling pathway blockade in yeast – S. cerevisiae, Pdr1DBD-CYC8 efflux-inhibited sensitized strain, primary screen (AID 1298);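 note: 0% = DMSO untreated cells without growth and 100% = 10 µM 1-NA-PP1 full growth; higher means more yeast growth rescued from 5-FOA killing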
Conditions: S. cerevisiae cbk1-as DSE1-URA3 strain, 5-FOA growth OD615, 2 d; at 50 µM; hits give high values
Activity calls are given as the source filed them.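 Rule for the calls: active = RAM network inhibition above 8.4% in each of two replicates, 3 SD over the compound average; inconclusive = above 8.4% inhibition in only one replicate; inactive = 8.4% inhibition or less in each replicate.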
compounds and their reported RAM network inhibition

| compound | readout-value |
| --- | --- |
| Cc1ccc(N=Cc2ccc(O)cc2O)cc1F | 0.31% (inactive) |

For `CCOc1ccc(N(CC(=O)NC2CCCCC2)S(=O)(=O)c2c(C)noc2C)cc1` the compound record lists RAM network inhibition as 1.06% (inactive)

For Cc1ccc(S(=O)(=O)N(CC(O)CN2CCCCC2)c2ccccc2)cc1 (stereo unspecified) the compound record lists RAM network inhibition as 3.38% (inactive)

For `C=CCSc1nnc(-c2cccnc2)o1` the compound record lists RAM network inhibition as 0.16% (inactive)

For O=C(NCCN1CCN(c2ccccc2)CC1)c1ccc(NC(=O)C2CCCO2)cc1 (stereo unspecified) the compound record lists RAM network inhibition as 2.86% (inactive)

For `O=C(CSC1=NCCS1)NCc1ccco1` the compound record lists RAM network inhibition as 3.89% (inactive)
